Attribution: PubChem BioAssay

test system: Wnt5a (protein binding on small-molecule microarray); assay: Wnt5a binders on small-molecule microarray, primary screen, biophysical, 635/667 nm fluorescence (AID 1142); settings: 635 nm fluorescence, higher = more signal;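 note: fluorescence read at 667 nm with signal to noise per printed feature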
Consider the following compounds; for each one, report its composite z-score.
I only need the number, thanks.

Input line: Item: `COCC1=C2[C@@H](CCc3ccccc3)OB(O)C[C@@H]2n2c(=O)n(-c3ccccc3)c(=O)n2C1` Test system: Wnt5a (protein binding on small-molecule microarray) Read-out: composite z-score Value: ?
Output line: 0.102

Input line: Item: `O=C1O[C@@H](c2ccccc2)[C@@H](c2ccccc2)N2[C@@H](c3ccc(OCCO)cc3)[C@]3(C(=O)Nc4ccc(C#CCCO)cc43)[C@@H](C(=O)N3CCCCCCC3)[C@H]12` Test system: Wnt5a (protein binding on small-molecule microarray) Read-out: composite z-score Value: ?
Output line: 0.825

Input line: Item: `O=C1[C@H]2[C@H]3[C@H](O)[C@H](O)CC(=NOC[C@@H](O)COCc4ccco4)[C@H]3CC[C@H]2C(=O)N1Cc1ccc2c(c1)OCO2` Test system: Wnt5a (protein binding on small-molecule microarray) Read-out: composite z-score Value: ?
Output line: 0.138

Input line: Item: `COC(=O)CC=C[C@@H](C)[C@@H](C=NO[C@@H](C)c1cc(-c2c(C)cc(C)cc2C)no1)OC` Test system: Wnt5a (protein binding on small-molecule microarray) Read-out: composite z-score Value: ?
Output line: -0.828

Input line: Item: O[C@@H](Cc1ccccc1)[C@H]1C2C=CCCC(c3ccccc3)=C2CN1Cc1cccc(Cl)c1 (some centres not stated) Test system: Wnt5a (protein binding on small-molecule microarray) Read-out: composite z-score Value: ?
Output line: 0.0825

Input line: Item: `COc1ccc(COC(=O)NN=C2C[C@@H](O)[C@@H](O)[C@@H]3[C@@H]4C(=O)N(Cc5ccc6c(c5)OCO6)C(=O)[C@@H]4CC[C@@H]23)cc1` Test system: Wnt5a (protein binding on small-molecule microarray) Read-out: composite z-score Value: ?
Output line: 0.0183

Input line: Item: CCCCCN1CC=CC23O[C@@H]4C=CCOC(=O)[C@@H]4[C@H]2C(=O)N(C(CO)C(C)C)[C@@H]3C1=O (some centres not stated) Test system: Wnt5a (protein binding on small-molecule microarray) Read-out: composite z-score Value: ?
Output line: -0.389

---

test system: Noggin (protein binding on small-molecule microarray); assay: Noggin binders on small-molecule microarray, primary screen, biochemical, 635/667 nm fluorescence (AID 1095); details: 635 nm fluorescence, higher = more signal;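 note: score merges 667 nm feature fluorescence with signal to noise over triplicate slides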
PARAMETER_MEASURED: composite z-score
I only need the number, thanks.

Input line: Tell me the measured composite z-score of `COC(=O)CC=C[C@H](C)[C@H](CO)NS(=O)(=O)c1ccc(C)cc1` , please.
Output line: 0.504

Input line: Tell me the measured composite z-score of `CC(=O)OC[C@H]1O[C@@H](ON=C(C)CCN2CCc3nc(-c4ccccc4)c(-c4ccccc4)cc3C2)[C@H](OC(C)=O)[C@@H](OC(C)=O)[C@@H]1OC(C)=O` , please.
Output line: 0.591

Input line: Tell me the measured composite z-score of O=C1C2C=CC(C(O)c3ccc([N+](=O)[O-])cc3)N(Nc3ccc([N+](=O)[O-])cc3)C2C(=O)N1c1ccccc1 (centres undefined) , please.
Output line: -0.238

Input line: Tell me the measured composite z-score of CCOC(=O)[C@H](Cc1ccccc1)NC(=O)CCC1CC(OC(=O)NCc2ccc3c(c2)OCO3)CC2(CCCC(COC(=O)NCc3ccccc3)O2)O1 (some centres undefined) , please.
Output line: 0.573

Input line: Tell me the measured composite z-score of `COc1ccc(O[C@H]2C=C[C@@H](c3ccccc3)O[C@@H]2COC(=O)CCC(C)=NOC[C@@H](C)[C@H](OCc2ccccc2)C(C)C)cc1` , please.
Output line: -0.37

Input line: Tell me the measured composite z-score of `COc1ccc([Si](C)(C)[C@@H]2[C@@H](CCO)O[C@]3(C(=O)N(Cc4ccc(NC(C)=O)cc4)c4ccccc43)[C@H]2C)cc1` , please.
Output line: 1.48

Input line: Tell me the measured composite z-score of `COc1ccc(O[C@H]2C=C[C@@H](c3ccccc3)O[C@@H]2COC(=O)N2CCCCC2)cc1` , please.
Output line: 0.0935

Input line: Tell me the measured composite z-score of `CC(C)=C1C(=O)C(c2ccccc2)=C2CN3C(=O)N(CCc4ccccc4)C(=O)[C@]3(Cc3ccc(F)cc3)[C@H]21` , please.
Output line: -1.25

Input line: Tell me the measured composite z-score of `CC(C)[C@@H](OCc1ccccc1)[C@H](C)C=NO[C@H](C)c1cn([C@H](CO)Cc2ccccc2)nn1` , please.
Output line: 0.453

Input line: Tell me the measured composite z-score of `COc1ccc(COC(=O)NN=C2C[C@@H](O)[C@@H](O)[C@@H]3[C@@H]4C(=O)N(Cc5ccc6c(c5)OCO6)C(=O)[C@@H]4CC[C@@H]23)cc1` , please.
Output line: -0.666

Input line: Tell me the measured composite z-score of `C#CCCCON=C1C[C@@H](O)[C@@H](O)[C@@H]2[C@@H]3C(=O)N(c4cccc(Oc5ccccc5)c4)C(=O)[C@@H]3CC[C@@H]12` , please.
Output line: 0.376

Input line: Tell me the measured composite z-score of `CN(C)CCCNC(=O)[C@@H]1c2ccccc2C(=O)N(Cc2cc(F)cc(C(F)(F)F)c2)[C@H]1c1ccc(CO)cc1` , please.
Output line: -0.0315

Input line: Tell me the measured composite z-score of COc1cccc([C@H]2Oc3ccc(OC)cc3C(=NOC(C)CN3CCCc4nc(C)c(C)cc43)[C@@H]2O)c1 (some centres undefined) , please.
Output line: 0.0233

Input line: Tell me the measured composite z-score of `CCCNC(=O)[C@@H]1c2ccccc2C(=O)N(c2ccc(C)cn2)[C@H]1c1ccc(CO)cc1` , please.
Output line: -1.08

Input line: Tell me the measured composite z-score of `C=CCOC(=O)[C@H]1[C@@H]2C(=O)O[C@@H](c3ccccc3)[C@@H](c3ccccc3)N2[C@@H](c2ccc(OCCOC(=O)[C@H]3C[C@H]4C(=O)N[C@@H](Cc5ccccc5)C(=O)N4[C@H]3c3ccc(O)cc3)cc2)[C@]12C(=O)Nc1ccccc12` , please.
Output line: 1.6

Input line: Tell me the measured composite z-score of `C[C@@H](c1ccccc1)N1C(=O)[C@H]2[C@H]3[C@H](O)C=CC(=O)[C@@H]3CC[C@H]2C1=O` , please.
Output line: 0.421

Input line: Tell me the measured composite z-score of `CO[C@H]1COC(=O)[C@H](C)COC(=O)CC=C[C@@H](C)[C@H](OC)COC(=O)CC=C[C@@H]1C` , please.
Output line: 0.638

Input line: Tell me the measured composite z-score of `CO[C@H]1COC(=O)[C@@H]2CCCN2C(=O)[C@@H](C)COC(=O)CC=C[C@@H]1C` , please.
Output line: 0.927

Input line: Tell me the measured composite z-score of CS(=O)(=O)CCOC(=O)C1=CC(CCCO)=CC(c2cccs2)N(Cc2cccc(OC(F)(F)F)c2)C=C1C(=O)OCCS(C)(=O)=O (centres undefined) , please.
Output line: 0.025

---

assay: fission yeast growth modulation, primary screen, strain 972, OD600, 24 h, no modulator (AID 1090);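 note: basal condition with compound alone and no growth modifier present; test concentration not given here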; conditions: S. pombe 972 growth, higher = more signal, called active from +8 up or from −8 down
PARAMETER_MEASURED: z-score
I only need the number, thanks.

Input line: Tell me the measured z-score of `C=C(/C(=C/C[C@H](OC(=O)c1ccncc1)c1ccc(OCCO)cc1)c1cnc2ccccc2c1)C(C)C` , please.
Output line: -1.82

Input line: Tell me the measured z-score of `COC(=O)C1=C(C)N(Cc2ccccc2)[C@]23O[C@](C(=O)OC)(C(=O)N2[C@@H]1c1ccccc1)[C@H]1CCOC(=O)[C@H]13` , please.
Output line: 0.494

Input line: Tell me the measured z-score of `COc1ccc(CCNC(=O)[C@@H]2c3ccccc3C(=O)N(c3ccc(C)cn3)[C@H]2c2ccc(CO)cc2)cc1` , please.
Output line: -0.436

Input line: Tell me the measured z-score of `CN1C(=O)[C@@]2(CCC(=O)OC(C)(C)C)N=C(c3ccc(OCCCO)cc3)O[C@H]2c2ccccc21` , please.
Output line: -2.19

Input line: Tell me the measured z-score of Cc1ccc(C2CC=C(C(=O)O)CN2S(=O)(=O)c2ccc(C)cc2)cc1 (configuration not stated) , please.
Output line: 1.02

Input line: Tell me the measured z-score of `C[N+](C)(C)CCCCCCNC(=O)[C@@H]1C[C@@H]2C(=O)N3CCC[C@H]3C(=O)N2[C@@H]1c1cccc(OCCO)c1` , please.
Output line: -0.0376

Input line: Tell me the measured z-score of COC(=O)[C@H](C)NC(=O)CCC1CC(OC(=O)NCc2cccc3ccccc23)CC2(CCCC(COC(=O)NCC3CCCCC3)O2)O1 (some centres not stated) , please.
Output line: 0.633
